# Species on record: Sus scrofa
# method_summary: In vitro antagonist activity was measured by inhibition of binding of [3H]LVP to renal medullary membrane preparation in pig
# Assay type: functional
# run_conditions: Renal medulla
property_label: Kb (nM)
Numbers only, in nM.

Recorded results for 4 molecules are shown here.
# molecule, property_label, number
measured = [
    ("CCOc1ccc(C[C@H]2NC(=O)CC3(CCCCC3)CCCC(C(=O)N[C@@H](CCCN=C(N)N)C(=O)N[C@H](CCCN=C(N)N)C(N)=O)NC(=O)[C@H](CC(N)=O)NC(=O)[C@H](C(C)C)NC(=O)[C@H](Cc3ccccc3)NC2=O)cc1 (stereo not given in full)", "Kb", 5.1),
    ("CCOc1ccc(C[C@H]2NC(=O)CC3(CCCCC3)SSCC(C(=O)N3CCC[C@@H]3C(=O)N[C@@H](CCCN=C(N)N)C(N)=O)NC(=O)[C@H](CC(N)=O)NC(=O)[C@H](C(C)C)NC(=O)[C@H](Cc3ccccc3)NC2=O)cc1 (stereo not given in full)", "Kb", 11.8),
    ("CCOc1ccc(C[C@H]2NC(=O)CC3(CCCCC3)CCCC(C(=O)N3CCC[C@@H]3C(=O)N[C@@H](CCCN=C(N)N)C(N)=O)NC(=O)[C@H](CC(N)=O)NC(=O)[C@H](C(C)C)NC(=O)[C@H](Cc3ccccc3)NC2=O)cc1 (stereo not given in full)", "Kb", 7.1),
    ("CCOc1ccc(C[C@H]2NC(=O)CC3(CCCCC3)SSCC(C(=O)N[C@@H](CCCN=C(N)N)C(N)=O)NC(=O)[C@H](CC(N)=O)NC(=O)[C@H](C(C)C)NC(=O)[C@H](Cc3ccccc3)NC2=O)cc1 (stereo not given in full)", "Kb", 10.2),
]

Next item in the queue.
Problem: State its Kb for this molecule: CCOc1ccc(C[C@H]2NC(=O)CC3(CCCCC3)SSCC(C(=O)N[C@@H](CCCN=C(N)N)C(=O)N[C@H](CCCN=C(N)N)C(N)=O)NC(=O)[C@H](CC(N)=O)NC(=O)[C@H](C(C)C)NC(=O)[C@H](Cc3ccccc3)NC2=O)cc1 (stereo not given in full)
Result: 5.4

---

# Test system: Rattus norvegicus
# method_summary: […] antagonist activity was measured by dose required to lower urine osmolality to 300 mOsm/kg of H2O
# Assay type: functional
property_label: ED300 (mg/kg)
Answers are plain numbers, in mg/kg.

Some entries whose results are on file:
# molecule, property_label, unit_of_measurement, number
data = [
    ("CCOc1ccc(C[C@H]2NC(=O)CC3(CCCCC3)SSCC(C(=O)N[C@@H](CCCN=C(N)N)C(=O)N[C@H](CCCN=C(N)N)C(N)=O)NC(=O)[C@H](CC(N)=O)NC(=O)[C@H](C(C)C)NC(=O)[C@H](Cc3ccccc3)NC2=O)cc1 (some centres undefined)", "ED300", "mg/kg", 0.0135),
    ("CCOc1ccc(C[C@H]2NC(=O)CC3(CCCCC3)SSC[C@@H](C(=O)N3CCC[C@H]3C(=O)N[C@@H](CCCN=C(N)N)C(N)=O)NC(=O)[C@H](CC(N)=O)NC(=O)[C@H](C(C)C)NC(=O)[C@H](Cc3ccccc3)NC2=O)cc1", "ED300", "mg/kg", 0.0084),
    ("CCOc1ccc(C[C@H]2NC(=O)CC3(CCCCC3)CCC[C@@H](C(=O)N3CCC[C@H]3C(=O)N[C@@H](CCCN=C(N)N)C(N)=O)NC(=O)[C@H](CC(N)=O)NC(=O)[C@H](C(C)C)NC(=O)[C@H](Cc3ccccc3)NC2=O)cc1", "ED300", "mg/kg", 0.0122),
]

Next:
Problem: Return ED300 (reported value) for this molecule: CCOc1ccc(C[C@H]2NC(=O)CC3(CCCCC3)CCCC(C(=O)N[C@@H](CCCN=C(N)N)C(=O)N[C@H](CCCN=C(N)N)C(N)=O)NC(=O)[C@H](CC(N)=O)NC(=O)[C@H](C(C)C)NC(=O)[C@H](Cc3ccccc3)NC2=O)cc1 (some centres undefined)
Result: 0.009
